# assay system: human M4 receptor (Homo sapiens)
# Construct: expressed in transfected cells; host or cells: CHO cells
# Sequence (P08173 1-479): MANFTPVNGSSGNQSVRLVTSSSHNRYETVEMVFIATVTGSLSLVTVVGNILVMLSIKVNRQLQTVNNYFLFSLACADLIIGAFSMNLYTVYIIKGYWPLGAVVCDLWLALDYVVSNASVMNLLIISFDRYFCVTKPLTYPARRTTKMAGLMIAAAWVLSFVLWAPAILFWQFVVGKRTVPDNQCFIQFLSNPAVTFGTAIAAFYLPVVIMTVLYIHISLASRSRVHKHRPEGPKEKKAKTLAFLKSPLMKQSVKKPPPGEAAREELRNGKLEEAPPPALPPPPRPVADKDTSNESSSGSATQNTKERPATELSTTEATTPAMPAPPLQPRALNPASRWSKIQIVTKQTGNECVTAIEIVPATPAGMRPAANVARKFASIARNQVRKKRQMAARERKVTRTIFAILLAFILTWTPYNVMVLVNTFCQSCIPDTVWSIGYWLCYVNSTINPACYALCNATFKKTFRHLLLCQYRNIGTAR
# assay info: Radioligand ([3H]N-methylscopolamine) binding assay, membranes from CHO cells expressing human M4 receptor
# assay conditions: Ki against human M4 receptor; membranes from CHO cells; tritiated N-methylscopolamine 1.5 nM; read-out: K
pKi: −log10 of the molar value.
pKi values for the compounds below.

* C[C@@H]1CN(c2nc3ccc(C(F)(F)F)cc3s2)[C@@H](C)CN1C(=O)OC1CC2(C1)CN(Cc1ccccc1)C2 | > 8.00
* C[C@H]1CN(C(=O)OC2CC3(C2)CN(Cc2ccccc2)C3)CCN1c1ncc(C(F)(F)F)cn1 | > 8.00
* C[C@@H]1CN(c2ncc(C(F)(F)F)cn2)[C@@H](C)CN1C(=O)NC1CC2(C1)CN(Cc1ccccc1)C2 | > 8.00
* C[C@@H]1CN(c2cnc3cc(C(F)(F)F)ccc3n2)[C@@H](C)CN1C(=O)OC1CC2(C1)CN(Cc1ccccc1)C2 | > 8.00
* C[C@@H]1CN(c2nc3ccccc3s2)CCN1C(=O)NC1CC2(C1)CN(Cc1ccccc1)C2 | 7.00 to 8.00

pKi reported for this compound COc1ccc(N2C[C@@H](C)N(C(=O)OC3CC4(C3)CN(Cc3ccccc3)C4)[C@@H](C)C2)cc1 : 6.00 to 7.00

pKi reported for this compound C[C@@H]1CN(c2ccc([N+](=O)[O-])cn2)C[C@@H](C)N1C(=O)OC1CC2(C1)CN(Cc1ccccc1)C2 : 6.00 to 7.00

---

# assay system: human M4 receptor (Homo sapiens)
# Construct: expressed in transfected cells; host or cells: CHO cells
# assay info: Radioligand ([3H]N-methylscopolamine) binding assay, membranes from CHO cells expressing human M4 receptor
# assay conditions: Ki against human M4 receptor; membranes from CHO cells; tritiated N-methylscopolamine 1.5 nM; read-out: K
pKi: −log10 of the molar value.
pKi values for the compounds below.

The cases that follow already have their pKi on record.
* C[C@@H]1CN(c2ncc3ccccc3n2)CCN1C(=O)NC1CC2(C1)CN(Cc1ccccc1)C2 | 7.00 to 8.00
* C[C@@H]1CN(c2ncc(C(F)(F)F)cn2)C[C@H](C)N1C(=O)OC1CC2(C1)CN(CC1CC3C=CC1C3)C2 (stereo partly shown) | 7.00 to 8.00
* COc1ccc2nc(N3C[C@@H](C)N(C(=O)OC4CC5(C4)CN(Cc4ccccc4)C5)C[C@H]3C)cnc2c1 | 6.00 to 7.00

pKi reported for this compound C[C@@H]1CN(c2ncc(C(F)(F)F)cc2F)C[C@H](C)N1C(=O)NC1CC2(C1)CN(Cc1ccccc1)C2 : > 8.00

pKi reported for this compound C[C@@H]1CN(c2ncc(C(F)(F)F)cn2)CCN1C(=O)OC1CC2(C1)CN(Cc1ccc(F)cc1)C2 : 6.00 to 7.00

pKi reported for this compound C[C@@H]1CN(c2ncc(OC(F)(F)F)cn2)C[C@H](C)N1C(=O)OC1CC2(C1)CN(Cc1ccccc1)C2 : > 8.00

pKi reported for this compound C[C@@H]1CN(c2nc3cc(F)ccc3s2)C[C@@H](C)N1C(=O)OC1CC2(C1)CN(Cc1ccccc1)C2 : 7.00 to 8.00

pKi reported for this compound COC(=O)c1ccc(CN2CC3(CC(NC(=O)N4[C@H](C)CN(c5ncc(C(F)(F)F)cn5)C[C@@H]4C)C3)C2)cc1 : 6.00 to 7.00

pKi reported for this compound C[C@@H]1CN(c2ncc(C(F)(F)F)cn2)C[C@@H](C)N1C(=O)OC1(C)CC2(CN(Cc3ccccc3)C2)C1 : 7.00 to 8.00

pKi reported for this compound C[C@@H]1CN(c2ncc(C(F)(F)F)cn2)C[C@@H](C)N1C(=O)NC1CC2(C1)CN(Cc1ccccc1)C2 : > 8.00

pKi reported for this compound C[C@@H]1CN(c2ncc(C(F)(F)F)cn2)C[C@H](C)N1C(=O)NC1CC2(C1)CN(Cc1ccc(Cl)s1)C2 : > 8.00

---

# assay system: human M4 receptor (Homo sapiens, UniProt P08173)
# Construct: expressed in transfected cells; host or cells: CHO cells
# assay info: Radioligand ([3H]N-methylscopolamine) binding assay, membranes from CHO cells expressing human M4 receptor
# assay conditions: Ki against human M4 receptor; membranes from CHO cells; tritiated N-methylscopolamine 1.5 nM; read-out: K
measured property: Ki

The cases that follow already have their Ki on record.
* C[C@@H]1CN(c2ncc(C(F)(F)F)cn2)C[C@H](C)N1C(=O)NC1CC2(C1)CN(Cc1ccc3occc3c1)C2 | < 10 nM
* C[C@@H]1CN(c2cnc(C(F)(F)F)cn2)[C@@H](C)CN1C(=O)OC1CC2(C1)CN(Cc1ccc(Cl)cc1)C2 | 10 to 100 nM

We now examine a further compound.
Ki reported for this compound C[C@@H]1CN(c2ncc(C#N)cn2)[C@@H](C)CN1C(=O)OC1CC2(C1)CN(Cc1ccc(F)cc1)C2 : 10 to 100 nM

---

# assay system: human M4 receptor (Homo sapiens, UniProt P08173)
# Construct: expressed in transfected cells; host or cells: CHO cells
# Sequence (P08173 1-479): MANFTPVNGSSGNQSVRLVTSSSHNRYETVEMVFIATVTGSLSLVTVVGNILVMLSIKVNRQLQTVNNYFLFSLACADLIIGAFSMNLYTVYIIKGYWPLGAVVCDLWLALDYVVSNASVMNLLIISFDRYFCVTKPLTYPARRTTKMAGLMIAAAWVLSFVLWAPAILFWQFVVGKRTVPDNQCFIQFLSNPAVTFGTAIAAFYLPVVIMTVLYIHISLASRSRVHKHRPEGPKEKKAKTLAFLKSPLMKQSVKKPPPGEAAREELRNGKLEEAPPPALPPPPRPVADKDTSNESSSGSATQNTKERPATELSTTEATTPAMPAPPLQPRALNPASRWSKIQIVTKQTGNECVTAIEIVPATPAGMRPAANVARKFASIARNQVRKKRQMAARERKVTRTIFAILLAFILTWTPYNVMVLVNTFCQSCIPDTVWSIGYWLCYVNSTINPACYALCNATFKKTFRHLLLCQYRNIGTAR
# assay info: Radioligand ([3H]N-methylscopolamine) binding assay, membranes from CHO cells expressing human M4 receptor
# assay conditions: Ki against human M4 receptor; membranes from CHO cells; tritiated N-methylscopolamine 1.5 nM; read-out: K
Ki values for the compounds below.

The cases that follow already have their Ki on record.
• Cc1ccc(CN2CC3(CC(NC(=O)N4[C@H](C)CN(c5ncc(C(F)(F)F)cn5)C[C@@H]4C)C3)C2)s1 = < 10 nM
• C[C@@H]1CN(c2ncc(C(F)(F)F)cn2)C[C@H](C)N1C(=O)NC1CC2(C1)CN(Cc1ccc(OC(F)F)cc1)C2 = 10 to 100 nM
• C[C@@H]1CN(c2ncc(C(F)(F)F)cn2)CCN1C(=O)OC1(C(F)F)CC2(CN(Cc3ccccc3)C2)C1 = 10 to 100 nM
• CCc1cnc(N2C[C@@H](C)N(C(=O)OC3CC4(C3)CN(Cc3ccccc3)C4)[C@@H](C)C2)nc1 = < 10 nM
• C[C@@H]1CN(c2cnc(C(F)(F)F)cn2)C[C@@H](C)N1C(=O)NC1CC2(C1)CN(Cc1ccc(Cl)cc1)C2 = 100 to 1000 nM

Ki reported for this compound C[C@@H]1CN(c2cnc(C(F)(F)F)cn2)[C@@H](C)CN1C(=O)OC1CC2(C1)CN(Cc1ccccc1)C2 : 10 to 100 nM

Ki reported for this compound C[C@@H]1CN(c2ncc(C(F)(F)F)cn2)C[C@@H](C)N1C(=O)OC1(C(F)F)CC2(CN(Cc3ccccc3)C2)C1 : 10 to 100 nM

---

# assay system: human M4 receptor (Homo sapiens)
# Construct: expressed in transfected cells; host or cells: CHO cells
# Sequence (P08173 1-479): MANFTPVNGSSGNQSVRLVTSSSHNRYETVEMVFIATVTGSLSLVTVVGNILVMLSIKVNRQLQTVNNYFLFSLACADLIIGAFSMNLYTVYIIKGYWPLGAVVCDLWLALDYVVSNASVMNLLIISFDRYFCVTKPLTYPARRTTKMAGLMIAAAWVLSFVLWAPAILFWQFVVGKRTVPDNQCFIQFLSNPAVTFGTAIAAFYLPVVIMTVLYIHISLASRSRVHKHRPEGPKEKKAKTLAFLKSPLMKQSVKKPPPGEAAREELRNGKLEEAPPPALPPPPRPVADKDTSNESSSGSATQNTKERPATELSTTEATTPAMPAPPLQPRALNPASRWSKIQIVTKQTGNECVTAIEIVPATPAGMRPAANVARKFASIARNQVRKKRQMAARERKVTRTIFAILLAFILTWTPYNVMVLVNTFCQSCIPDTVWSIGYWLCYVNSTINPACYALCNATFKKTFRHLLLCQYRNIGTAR
# assay info: Radioligand ([3H]N-methylscopolamine) binding assay, membranes from CHO cells expressing human M4 receptor
# assay conditions: Ki against human M4 receptor; membranes from CHO cells; tritiated N-methylscopolamine 1.5 nM; read-out: K
pKi: −log10 of the molar value.
pKi values for the compounds below.

The cases that follow already have their pKi on record.
* C[C@@H]1CN(c2cnc(C(F)(F)F)cn2)C[C@@H](C)N1C(=O)OC1CC2(C1)CN(Cc1ccc(F)cc1)C2 | 7.00 to 8.00
* C[C@@H]1CN(c2ncc(F)cn2)C[C@H](C)N1C(=O)OC1CC2(C1)CN(Cc1ccccc1)C2 | > 8.00
* C[C@@H]1CN(c2ncc(C(F)(F)F)cn2)C[C@H](C)N1C(=O)NC1CC2(C1)CN(Cc1ccccc1)C2 | > 8.00

We now examine a further compound.
pKi reported for this compound C[C@@H]1CN(c2ncc(C(F)(F)F)cn2)C[C@H](C)N1C(=O)NC1CC2(C1)CN(CC13CC4CC(CC(C4)C1)C3)C2 : 7.00 to 8.00
